Measured EC50 accompanies every entry in the list below.
experimental system: ΔF508-CFTR (Homo sapiens, UniProt P13569, DEL508-508)
Construct: host or cells: CFBE41o-, doxycycline-inducible
Sequence (P13569 with tags, fused parts or gaps DEL508-508): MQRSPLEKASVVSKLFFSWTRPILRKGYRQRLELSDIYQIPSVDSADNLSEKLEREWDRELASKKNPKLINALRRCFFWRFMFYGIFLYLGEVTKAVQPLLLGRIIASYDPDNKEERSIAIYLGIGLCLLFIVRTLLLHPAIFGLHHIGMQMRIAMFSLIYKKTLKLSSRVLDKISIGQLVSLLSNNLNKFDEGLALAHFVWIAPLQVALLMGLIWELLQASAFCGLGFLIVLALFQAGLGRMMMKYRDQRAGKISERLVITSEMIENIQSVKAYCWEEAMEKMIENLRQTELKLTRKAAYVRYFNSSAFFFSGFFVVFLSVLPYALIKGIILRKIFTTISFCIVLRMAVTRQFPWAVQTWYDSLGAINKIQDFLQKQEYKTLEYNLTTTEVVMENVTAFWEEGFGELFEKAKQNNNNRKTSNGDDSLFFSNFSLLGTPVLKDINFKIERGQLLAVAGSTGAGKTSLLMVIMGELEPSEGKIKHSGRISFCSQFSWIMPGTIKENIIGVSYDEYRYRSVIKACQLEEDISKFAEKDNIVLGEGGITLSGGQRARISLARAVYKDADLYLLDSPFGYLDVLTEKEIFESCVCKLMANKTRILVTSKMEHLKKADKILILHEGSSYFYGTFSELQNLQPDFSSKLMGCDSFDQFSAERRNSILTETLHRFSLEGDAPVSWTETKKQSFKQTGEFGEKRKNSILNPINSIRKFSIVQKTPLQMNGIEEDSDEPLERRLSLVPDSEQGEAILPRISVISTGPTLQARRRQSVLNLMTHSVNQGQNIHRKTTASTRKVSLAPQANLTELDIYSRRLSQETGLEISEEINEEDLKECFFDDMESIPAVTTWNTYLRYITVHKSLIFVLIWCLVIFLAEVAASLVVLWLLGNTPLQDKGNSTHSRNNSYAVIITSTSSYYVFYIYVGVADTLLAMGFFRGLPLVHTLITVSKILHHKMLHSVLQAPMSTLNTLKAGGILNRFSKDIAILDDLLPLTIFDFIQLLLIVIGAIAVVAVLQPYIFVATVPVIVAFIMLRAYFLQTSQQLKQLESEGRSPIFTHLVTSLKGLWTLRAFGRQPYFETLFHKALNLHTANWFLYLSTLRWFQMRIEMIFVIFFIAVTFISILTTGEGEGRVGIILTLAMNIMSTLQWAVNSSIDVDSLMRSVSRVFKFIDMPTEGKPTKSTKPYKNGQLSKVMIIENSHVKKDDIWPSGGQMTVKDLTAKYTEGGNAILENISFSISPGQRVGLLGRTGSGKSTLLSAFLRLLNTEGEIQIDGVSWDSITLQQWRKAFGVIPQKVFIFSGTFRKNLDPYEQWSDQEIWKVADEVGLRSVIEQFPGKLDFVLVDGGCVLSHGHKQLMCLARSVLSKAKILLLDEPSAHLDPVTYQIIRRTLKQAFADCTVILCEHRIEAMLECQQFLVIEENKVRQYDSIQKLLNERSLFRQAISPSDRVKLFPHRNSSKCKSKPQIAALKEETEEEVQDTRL
assay notes: CFTR cell surface levels using HRP-tagged ΔF508-CFTR expressing CFBE cells, in the presence of a co-corrector
Format: cell-based
setup conditions: HRP-tagged ΔF508-CFTR expressing CFBE cells, in the presence of 3 μM co-corrector; read-out: EC50
metric name: EC50 (nM)

compound	metric name	measured number
CC(C)c1nn(-c2ccc(F)cc2)c2nc(C(=O)O)cc(OCC3(C)COC3)c12 [compound 608]	EC50	683
CC(C)c1nn(-c2ccnc(N3CCOCC3)c2)c2nc(C(=O)O)cc(-c3ccc(N4CCOCC4)cc3)c12 [compound 201]	EC50	288
O=C(O)c1cc(N2CCC(CCCN3CCCC3)CC2)c2c(C3CCC3)nn(-c3ccccc3)c2n1 [compound 733]	EC50	85.1
CN(C)c1ccc(-c2cc(C(=O)O)nc3c2c(C2CC2)nn3C2CCCCC2)cn1 [compound 193]	EC50	425
